Entry source: PubChem BioAssay AID248

- System: L1210 leukemia ip in BDF1 mice, survival T/C
- MEASUREMENT DESCRIPTION: NCI In Vivo Anticancer Drug Screen. Data for tumor model L1210 Leukemia (intraperitoneal) in B6D2F1 (BDF1) mice
- CONDITION LABEL: endpoint: mean survival time; dose: 400.0 mg/kg/injection; schedule: Q04DX003 (ip); vehicle: Klucel (hydroxypropylcellulose) (HPC); higher = longer survival
Toxic doses and inconclusive results are not listed.
ENDPOINT LABEL: T/C

compound="O=C1NC(=O)C(c2ccco2)N1 (stereo not drawn)" endpoint_label=T/C value_reported="114 % of control"
compound="NC1(C(=O)c2ccccc2)CC2CCC1C2 (stereo not drawn)" endpoint_label=T/C value_reported="103 % of control"
compound="CC(=O)OC12CCC(O1)C1C(=O)OC(=O)C12 (stereo not drawn)" endpoint_label=T/C value_reported="97 % of control"
compound=O=C(Nc1ccc([N+](=O)[O-])cc1Cl)SCc1ccccc1 endpoint_label=T/C value_reported="92 % of control"
compound="Cc1ccc(C)c(C(C)NC(=O)NCCCl)c1 (stereo not drawn)" endpoint_label=T/C value_reported="96 % of control"
compound=CCCCCCCCCCCCCCCC(=O)Nc1ccc(C(=O)O)cc1 endpoint_label=T/C value_reported="94 % of control"
compound=CN(C)C(=S)SCN1CCCCC1 endpoint_label=T/C value_reported="107 % of control"
compound=CN(CCO)C(=O)c1ccc([N+](=O)[O-])cc1 endpoint_label=T/C value_reported="107 % of control"
compound=CCCCCCCCCCCCCCCC(=O)Oc1ccc(C(=S)N2CCOCC2)cc1 endpoint_label=T/C value_reported="99 % of control"
compound=Cc1cccc(C)c1NS(=O)(=O)c1ccc(Cl)cc1 endpoint_label=T/C value_reported="98 % of control"
compound=CC(C)OB(OC(C)C)OC(C)C endpoint_label=T/C value_reported="100 % of control"
compound="COC(=O)COC1=NCC([N+](=O)[O-])CC1 (stereo not drawn)" endpoint_label=T/C value_reported="102 % of control"
compound="COc1ccc(CC(CO)C(CO)Cc2ccc(OC)c(OC)c2)cc1OC (stereo not drawn)" endpoint_label=T/C value_reported="100 % of control"
